# credit: PubChem BioAssay

- experiment_notes: S. cerevisiae RM11-1a growth modifiers, primary screen, strain RM11-1a, OD600, basal, 24 h (AID 1177);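 also: cultures grown under basal conditions with no added stressor; test concentration not given here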
- protocol_conditions: OD600, 24 h, higher = more signal, called active from +8 up or from −8 down
Reported z-score values are given for each entry in this list.
The answer should be a number; do not append a unit.

Completed entries (count: 4):
[[record]]
compound = "O=C1O[C@@H](c2ccccc2)[C@@H](c2ccccc2)N2[C@@H](c3ccccc3OCCO)[C@]3(C(=O)Nc4ccc(C#CC5(O)CCCCCC5)cc43)[C@@H](C(=O)Nc3nc4ccccc4s3)[C@H]12"
property = "z-score"
reported = 1.86

[[record]]
compound = "O=C(OCCF)C1=CCC(c2cccc(Cl)c2)O1 (configuration not stated)"
property = "z-score"
reported = -1.56

[[record]]
compound = "CN(C)CCCNC(=O)[C@@]1(Cc2ccccc2I)c2ccccc2C(=O)N(Cc2ccccc2C(F)(F)F)[C@H]1c1ccc(CO)cc1"
property = "z-score"
reported = 0.653

[[record]]
compound = "N[C@@H](Cc1ccccc1)Cn1cc(-c2ccccc2)nn1"
property = "z-score"
reported = -0.519


[Q] If you can, please state the reported z-score value of COCCOC(=O)N1C(=O)[C@@]2(c3cc(C#CCCO)ccc31)[C@H](c1ccccc1OCCO)N1[C@H](c3ccccc3)[C@H](c3ccccc3)OC(=O)[C@H]1[C@@H]2C(=O)N1CCN(c2ncccn2)CC1 .
[A] 2.18

[Q] Please give the measured z-score for this compound: CCCCCN1CC=CC23O[C@@H]4C=CCOC(=O)[C@@H]4[C@H]2C(=O)N(CCCO)[C@@H]3C1=O (some centres not stated)
[A] -0.0379

[Q] Report z-score for CC(c1ccccc1)C(O)C1C=CC2C(=O)NC(=O)C2N1Nc1ccccn1 (configuration not stated) please.
[A] 1.27

[Q] Fill in: z-score of COc1ccc([Si](C)(C)[C@@H]2[C@@H](CC(=O)N(CCO)Cc3ccccc3)O[C@]3(C(=O)N(C)c4ccccc43)[C@H]2C)cc1 is ___
[A] 0.975

[Q] Which z-score value belongs to [N-]=[N+]=NCc1ccccc1[C@H]1OC(c2ccc(OCCCO)cc2)=N[C@@]1(CCS(=O)(=O)c1ccccc1)C(=O)N1CCOCC1 ?
[A] 0.686

====

Below, each entry is listed alongside its reported z-score.
- experiment_notes: MM1S myeloma cell viability, profiling panel, resazurin fluorescence, basal, 24 h, PK04 Diversity Set (AID 1174);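 also: MM1S multiple myeloma cell line; test concentration not given here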
- protocol_conditions: higher = more signal, called active from +8 up or from −8 down
# respond with the number and nothing more

[Q] Data request, read-out z-score, for C=C[C@H](COC(C)=O)N(Cc1ccc(OC(C)=O)c(OC)c1)S(=O)(=O)c1ccc(Br)cc1
[A] 0.427

[Q] Record request: z-score value, item COCCOC(=O)N1C(=O)[C@@]2(c3cc(C#CCNC(N)=O)ccc31)[C@H](c1ccc(O)cc1)N1[C@H](c3ccccc3)[C@H](c3ccccc3)OC(=O)[C@H]1[C@@H]2C(=O)NC[C@H](O)c1ccccc1
[A] 0.302

[Q] What value of z-score has been recorded for this entry: O=C1OCCC=C[C@H]2OC34C=CCN(Cc5ccccc5)C(=O)[C@H]3N(CCCO)C(=O)[C@@H]4C12 (stereo partly specified)
[A] 1.33

[Q] # lookup: z-score of COC(=O)C[C@@H]1C[C@H](C)[C@]2(O1)C(=O)N(Cc1ccccc1)c1ccc(NC(C)=O)cc12
[A] -1.19

[Q] Need z-score, item CCOC(=O)C1=CCC(c2ccc(C#N)cc2)N(S(=O)(=O)c2ccc(C)cc2)C1 (stereo unspecified)
[A] -1.35

[Q] Looking for the measured z-score of COC(=O)c1ccc(C(O)C2C=CC3C(=O)N(c4ccccc4)C(=O)C3N2Nc2ccc(C#N)cc2)o1 (stereo unspecified) , can you help?
[A] -0.582

====

- system_name: Torsin-1A (Homo sapiens) (UniProt O14656)
- Sequence (O14656 whole entry, looked up): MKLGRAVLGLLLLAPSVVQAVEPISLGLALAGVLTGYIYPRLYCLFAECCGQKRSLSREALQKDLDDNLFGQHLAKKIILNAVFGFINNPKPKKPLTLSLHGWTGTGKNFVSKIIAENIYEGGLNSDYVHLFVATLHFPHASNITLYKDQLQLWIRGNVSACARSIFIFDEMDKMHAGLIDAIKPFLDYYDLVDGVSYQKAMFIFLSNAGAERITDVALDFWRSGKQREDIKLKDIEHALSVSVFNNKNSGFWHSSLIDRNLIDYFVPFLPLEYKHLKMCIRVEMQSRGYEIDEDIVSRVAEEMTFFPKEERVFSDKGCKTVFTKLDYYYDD
- experiment_notes: torsin A binders from cell lysate, primary screen, small-molecule microarray, wild-type, 635/667 nm (AID 1149)
- protocol_conditions: COS7 hTOR1A-WT lysate, 635 nm fluorescence, higher = more signal
Listing: composite z-score of selected molecules
// keep it numeric: no unit symbol after the value

Some solved entries appear below for comparison.
[[record]]
molecule = "C=CCN1C(=O)[C@]2(O[C@H](CCO)[C@@H]([Si](C)(C)c3ccc(OC)cc3)[C@@H]2C)c2cc(NC(=O)[C@H](C)O)ccc21"
reported = 0.725

[[record]]
molecule = "Cc1cc(C)c(C(O)C2C=CC3C(=O)N(c4ccccc4)C(=O)C3N2Nc2ccc(C#N)cc2)c(C)c1 (centres undefined)"
reported = 0.221

[[record]]
molecule = "COC(=O)[C@]1(Cc2ccccc2N=[N+]=[N-])N=C(c2ccc(OCCCO)cc2)O[C@@H]1c1ccccc1N=[N+]=[N-]"
reported = -1.45


Here is the next item to consider.
[Q] Short answer please: composite z-score, Torsin-1A (Homo sapiens) (UniProt O14656), entry COc1cc2c(cc1O)C(C)N(Cc1cccc(OC(F)(F)F)c1)CC2 (centres undefined)
[A] 1.7

====

- experiment_notes: small-molecule microarray binders of probe aDKK1, primary screen, biochemical, biotinylated probe, 635/667 nm fluorescence (AID 1099);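 also: score merges 667nm spot fluorescence with signal to noise across triplicate slides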
- protocol_conditions: higher = more signal
Outcome label depends on composite z-score relative to 0.07: at/above gives 1 (yes), below gives 0 (no).

[[record]]
molecule = "C=CCOC(=O)[C@@H]1[C@H]2C(=O)O[C@H](c3ccccc3)[C@H](c3ccccc3)N2[C@H](c2ccc(OCCOC(=O)[C@@H]3C[C@@H]4C(=O)NCC(=O)N4[C@@H]3c3cccc(OCCO)c3)cc2)[C@@]12C(=O)Nc1ccc(I)cc12"
category = "0 (no)"

[[record]]
molecule = "Cc1ccccc1C(O)C1C=CC2C(=O)N(C)C(=O)C2N1N1CCCCC1 (configuration not stated)"
category = "1 (yes)"

[[record]]
molecule = "COC(=O)[C@@]1(Cc2ccccc2)[C@H]2c3cc(C(=O)N(C)C)n(Cc4c(-c5ccccc5)noc4C)c3C[C@H]2CN1C(=O)c1ccccc1"
category = "1 (yes)"

[[record]]
molecule = "CN(C)CCCCCCNC(=O)[C@H]1C[C@H]2C(=O)N[C@@H](CCCCN)C(=O)N2[C@H]1c1ccc(O)cc1"
category = "1 (yes)"


[Q] Answer whether composite z-score of O=C1C=CC(=O)[C@@H]2CC(COc3ccccc3)=C3[C@@H](CCc4ccccc4)OB(O)C[C@@H]3[C@H]12 is greater than or equal to 0.07.
[A] 0 (no)

[Q] Assess whether reported composite z-score for O=C1OCCC=C[C@H]2OC34C=CCN(Cc5ccccc5)C(=O)[C@H]3N(CCCO)C(=O)[C@@H]4C12 (some centres not stated) sits at 0.07 or higher.
[A] 0 (no)

[Q] Given the entry CCOC(=O)C[C@H]1[C@H](OC(=O)c2ccc(-c3ccccc3)cc2)[C@@H](NC(=O)c2ccc(-c3ccccc3)cc2)c2cc(OCCCO)ccc2N1C(=O)Cc1ccc(OC)cc1 , answer whether its composite z-score meets or surpasses 0.07.
[A] 0 (no)

====

The following compounds are listed with their measured composite z-score values.
- Test system: Chordin-like protein 2 (CHRDL2)
- experiment_notes: CHRDL2 small-molecule binders, primary screen, biochemical, small-molecule microarray, 635 nm fluorescence (AID 1126);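 also: printed compound slides probed with Chrdl2 protein at 4 µg/mL for 1 h at 4 C; score merges 667 nm emission intensity with signal to noise over three replicate slides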
- protocol_conditions: small-molecule microarray binding, fluorescence 635 nm; higher = more signal
Reply briefly: the number, and no unit.

Observe how each entry below is paired with its result.
[[record]]
compound = "[N-]=[N+]=Nc1ccccc1[C@@H]1OC(c2ccc(OCCCO)cc2)=N[C@]1(CCS(=O)(=O)c1ccccc1)C(=O)N1CCOCC1"
reported = -0.535

[[record]]
compound = "CCOC(=O)C1=CC[C@@H](c2ccccc2Cl)N(S(=O)(=O)c2ccc(C)cc2)C1"
reported = -1.04

[[record]]
compound = "CC(C)c1ccc(NN2C(C(O)c3ccc(N(C)C)cc3)C=CC3C(=O)N(c4ccccc4)C(=O)C32)cc1 (centres undefined)"
reported = -0.0118


[Q] Value lookup for composite z-score; key = CC(C)c1ccc(NN2C(C(O)c3c(F)cccc3Cl)C=CC3C(=O)N(c4ccccc4)C(=O)C32)cc1 (centres undefined)
[A] -0.297

[Q] Given CCN(CC)c1ccc(N2CC=CC34O[C@@H]5C=CCCOC(=O)C5[C@H]3C(=O)N(CCCCCO)[C@@H]4C2=O)cc1 (some centres undefined) , state its recorded composite z-score.
[A] -0.218

====

- system_name: Streptavidin (Streptomyces avidinii)
- experiment_notes: streptavidin binders on small-molecule microarray, primary screen, artefact control for SMM compound annotation, biophysical, 635/667 nm fluorescence (AID 1147);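 also: signal reflects streptavidin binding to arrayed compounds as a control protein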
- protocol_conditions: streptavidin binding, higher = more signal
composite z-score for assorted compounds
Note: the reply should be a number with no unit written.

// worked examples, composite z-score included
[[record]]
compound = "CC(C)(C)OC(=O)CC[C@@]1(C(=O)NCCN2CCOCC2)N=C(c2ccc(OCCCO)cc2)O[C@@H]1c1ccccc1"
property = "composite z-score"
reported = 1.12

[[record]]
compound = "CC(C)NC(=O)[C@@]1(Cc2ccccc2I)c2ccccc2C(=O)N(Cc2ccccc2)[C@H]1c1ccc(CO)cc1"
property = "composite z-score"
reported = 0.0632

[[record]]
compound = "CCC(CC)C(O)C1C=CC2C(=O)N(c3ccccc3)C(=O)C2N1Nc1ccc(C#N)cc1 (centres undefined)"
property = "composite z-score"
reported = 1.24

[[record]]
compound = "CC(C)C(=C=CC[C@H](O)c1ccccc1OCCO)C[C@H](O)c1ccccn1"
property = "composite z-score"
reported = -0.199


[Q] Tell me the measured composite z-score of C=C(COC)C(=O)CC[C@H](OC(C)=O)c1cccc(OCCO)c1 , please.
[A] -1.1

[Q] Name the reported composite z-score value associated with the compound COc1cc2c(cc1OC)CN(C(=O)[C@@H]1[C@H]3C(=O)O[C@H](c4ccccc4)[C@H](c4ccccc4)N3[C@H](c3ccccc3OCCO)[C@@]13C(=O)Nc1ccc(C#CCNC(N)=O)cc13)CC2
[A] 0.684
